In this section we review reported Inhibitory Ratio of Proliferation(%) Compound Concentration 250 nM values for a set of compounds.
# Tested on: Vascular smooth muscle cells of normal coronary artery (Cryo CASMC)
# Assay Explanation: Inhibitory test against proliferation of vascular smooth muscle cells of normal coronary artery under proliferation stimulation (MTS assay)
# Type: cell-based
# Stated Conditions: 250 nM; FGF and EGF stimulation, 72 hours
# Experimental: Vascular smooth muscle cells of normal coronary artery (Cryo CASMC) were cultured for 2 hours in the presence or absence of a test substance in DMEM medium containing 0.5% of FBS and insulin (5 u g/ml). Then, FGF and EGF were added for proliferation stimulation. The mixture was cultured for 72 hours and proliferation of the cells were measured by the MTS assay. The results aree shown in the following
Value expressed in %; do not type the unit.

As a guide, the following entries are already answered.
>>> numeric_readout("O=C(Nc1cc(C(F)(F)F)ccc1C(F)(F)F)c1cc(Br)ccc1O [Compound No. 268]")
5.6
>>> numeric_readout("CC(C)(C)c1nc(NC(=O)c2cc(Br)ccc2O)sc1N1CCN(c2ccccc2)CC1")
52.5
>>> numeric_readout("CC(C)(C)C(=O)c1sc(NC(=O)c2cc(Br)ccc2O)nc1C(C)(C)C")
59.8
>>> numeric_readout("COc1ccc(Oc2ccc(C(F)(F)F)cc2NC(=O)c2cc(Cl)ccc2O)cc1")
84.1

Prompt line: Query for Vascular smooth muscle cells of normal coronary artery (Cryo CASMC): what Inhibitory Ratio of Proliferation(%) Compound Concentration 250 nM does the record show for `O=C(Nc1cc(C(F)(F)F)cc(C(F)(F)F)c1)c1cc(Br)ccc1O` ?
Response line: 88.0

Prompt line: Query for Vascular smooth muscle cells of normal coronary artery (Cryo CASMC): what Inhibitory Ratio of Proliferation(%) Compound Concentration 250 nM does the record show for `O=C(Nc1cc(C(F)(F)F)cc(C(F)(F)F)c1)c1cc(-c2ccccc2)ccc1O` ?
Response line: 31.6

Prompt line: Query for Vascular smooth muscle cells of normal coronary artery (Cryo CASMC): what Inhibitory Ratio of Proliferation(%) Compound Concentration 250 nM does the record show for `CC(C)(C)C(=O)c1sc(NC(=O)c2cc(Cl)ccc2O)nc1C(C)(C)C` ?
Response line: 35.1

Prompt line: Query for Vascular smooth muscle cells of normal coronary artery (Cryo CASMC): what Inhibitory Ratio of Proliferation(%) Compound Concentration 250 nM does the record show for O=C(Nc1cc(C(F)(F)F)ccc1C(F)(F)F)c1cc(Br)ccc1O [Compound No. 83] ?
Response line: 27.1

* * *

# Test system: NF-κ B
# Assay Explanation: Inhibitory activity of NF-κ B activation, luciferase reporter assay in HepG2 under TNF-α stimulation
# Type: cell-based, human
# Stated Conditions: 1 μg/mL; HepG2, TNF-α (40 ng/ml), 4 hours
Record 1 whenever Inhibitory Ratio of NF-κ B Activation(%) Drug Concentration 1 μg/mL is at 90% or higher; record -1 when lower.

Some solved entries appear below for comparison.
>>> discrete_label("O=C(Nc1cc(C(F)(F)F)ccc1C(F)(F)F)c1cc(Br)ccc1O [Compound No. 83]")
1
>>> discrete_label("C#Cc1ccc(O)c(C(=O)Nc2cc(C(F)(F)F)cc(C(F)(F)F)c2)c1")
-1
>>> discrete_label("CC(O)c1ccc(O)c(C(=O)Nc2cc(C(F)(F)F)cc(C(F)(F)F)c2)c1 (centres unmarked)")
-1
>>> discrete_label("O=C(Nc1cc(C(F)(F)F)cc(C(F)(F)F)c1)c1ccc(F)cc1O")
1
>>> discrete_label("O=C(Nc1ccccc1)Nc1ccc(O)c(C(=O)Nc2cc(C(F)(F)F)cc(C(F)(F)F)c2)c1")
-1
>>> discrete_label("O=C(Nc1cc(C(F)(F)F)ccc1[N+](=O)[O-])c1cc(Cl)ccc1O")
-1
>>> discrete_label("N#Cc1ccc(Cl)cc1NC(=O)c1cc(Cl)ccc1O")
-1

Prompt line: hey, is Inhibitory Ratio of NF-κ B Activation(%) Drug Concentration 1 μg/mL for this one >= 90%? `COc1ccc(C(C)(C)c2ccccc2)cc1NC(=O)c1cc(Cl)ccc1O`
Response line: -1
